Biological target: T1, mouse MAdCAM expressed on cells (mouse, UniProt Q61826 22-405)
T1 construct: whole, on cells
T1 sequence (looked up): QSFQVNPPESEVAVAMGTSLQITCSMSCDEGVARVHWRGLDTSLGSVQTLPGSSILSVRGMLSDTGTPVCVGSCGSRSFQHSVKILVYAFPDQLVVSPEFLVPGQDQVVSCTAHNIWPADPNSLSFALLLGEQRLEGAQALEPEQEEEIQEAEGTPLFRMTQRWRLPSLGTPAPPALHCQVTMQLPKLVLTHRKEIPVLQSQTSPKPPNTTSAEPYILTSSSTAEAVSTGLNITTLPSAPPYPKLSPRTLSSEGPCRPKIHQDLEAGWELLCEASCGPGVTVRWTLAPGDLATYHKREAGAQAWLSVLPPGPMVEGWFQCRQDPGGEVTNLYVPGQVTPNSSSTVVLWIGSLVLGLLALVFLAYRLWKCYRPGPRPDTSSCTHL
Assay: cell binding
VALUE_KIND: binding result

MAdCAM Antibody Table 1 Clone 33 (scFv) scFv: QVQLVQSGAEVKKPGASVKVSCKASGYTFTSYGISWVRQAPGQGLEWMGWMHPKSGDTGLTQKFQGRVTMTRDTSTSTVYMELSSLRSEDTAVYYCARDTPYYYYGMDVWGQGTTVTVSSGGGGSGGGGSGGGGSGGGGSDIQMTQSPSSLSASVGDRVTITCRASQSISSWLAWYQQKPGKAPKLLIYAASSLQSGVPSRFSGSGSGTDFTLTISSLQPEDFATYYCQQSYSVPITFGQGTKVEIK    no binding
MAdCAM Antibody Table 1 Clone 11 (scFv) scFv: QVQLVQSGAEVKKPGASVKVSCKASGYTFTTYYMHWVRQAPGQGLEWMGGFDPEDGETIYAQKFQGRVTMTRDTSTSTVYMELSSLRSEDTAVYYCARHAVAGAVGAGYYYYGMDVWGQGTMVTVSSGGGGSGGGGSGGGGSGGGGSDIQMTQSPSSLSASVGDRVTITCRASESISNWLAWYQQKPGKAPKLLIYAASTLQSGVPSRFSGSGSGTDFTLTISSLQPEDFATYYCQQSYSVPFTFGPGTKVDIK    no binding
MAdCAM Antibody Table 1 Clone 25 (scFv) scFv: QVQLVQSGAEVKKPGASVKVSCKASGYTLTTWYMYWVRQAPGQGLEWMGWINPNRGATNYAQKFQGRVTMTRDTSTSTVYMELSSLRSEDTAVYYCAKGDLWGAMDVWGQGTLVTVSSGGGGSGGGGSGGGGSGGGGSDIQMTQSPSSLSASVGDRVTITCRASDNIGSWLAWYQQKPGKAPKLLIYAASSLQSGVPSRFSGSGSGTDFTLTISSLQPEDFATYYCQQGYSTPPTFGQGTKVEIK    no binding
MAdCAM Antibody Table 1 Clone 50 (scFv) scFv: QVQLVQSGAEVKKPGASVKVSCKASGYTFTSYDINWVRQAPGQGLEWMGWINPNSGTTGYAQKFQGRVTMTRDTSTSTVYMELSSLRSEDTAVYYCARSPYYYYGMDVWGQGTTVTVSSGGGGSGGGGSGGGGSGGGGSDIQMTQSPSSLSASVGDRVTITCRASHFISRWVAWYQQKPGKAPKLLIYAASTLQSGVPSRFSGSGSGTDFTLTISSLQPEDFATYYCQQSYSGISFGPGTKVDIK    no binding
MAdCAM Antibody Table 1 Clone 4 (scFv) scFv: QVQLVQSGAEVKKPGASVKVSCKASGGTFSSYAISWVRQAPGQGLEWMGSINPSGDTTSYAQKFQGRVTMTRDTSTSTVYMELSSLRSEDTAVYYCAKDKAQWLVGYFDYWGQGTLVTVSSGGGGSGGGGSGGGGSGGGGSDIQMTQSPSSLSASVGDRVTITCQASQDISNSLNWYQQKPGKAPKLLIYAASSLQSGVPSRFSGSGSGTDFTLTISSLQPEDFATYYCQQSYSSVITFGQGTKVEIK    binds
